Sourced from patent US12552834

Molecular target: T1, ENAH EVH1 domain (monomeric, wild type) (human, UniProt Q03173 1-111 (mouse entry))
T1 construct: ENAH residue numbers in the text count from the Met at position 25 of this entry; also called ENAH EVH1 WT; Mena EVH1 WT
T1 sequence (Q03173 other isoform, or with tags, fused parts or gaps limits assumed): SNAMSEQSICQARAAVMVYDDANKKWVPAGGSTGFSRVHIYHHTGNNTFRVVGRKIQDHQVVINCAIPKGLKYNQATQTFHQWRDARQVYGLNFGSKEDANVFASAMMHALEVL
Assay: BLI, steady state; SUMO-peptide immobilised, EVH1 monomer in solution

Binder	Kd, µM
SYNPO2 36-mer peptide (biotinylated (BAP tag), Tested as a biotinylated BAP-6xHis-SUMO-peptide fusion) peptide: MAGGLNDIFEAQKIEWHEDTGGSSHHHHHHGSGSGSDSEVNQEAKPEVKPEVKPETHINLKVSDGSSEIFFKIKKTTPLRRLMEAFAKRQGKEMDSLTFLYDGIEIQADQTPEDLDMEDNDIIEAHREQIGGSGSGKSPIADFPAPPPYSAVTPPPDAFSRGVSSPIAGPAQ	52.1
TENM1 36-mer peptide (biotinylated (BAP tag), Tested as a biotinylated BAP-6xHis-SUMO-peptide fusion; The text calls it TEN1; it contains both an FP4 and a CXC motif; also called TEN1) peptide: MAGGLNDIFEAQKIEWHEDTGGSSHHHHHHGSGSGSDSEVNQEAKPEVKPEVKPETHINLKVSDGSSEIFFKIKKTTPLRRLMEAFAKRQGKEMDSLTFLYDGIEIQADQTPEDLDMEDNDIIEAHREQIGGSGSGGSTQDVQSSPHNQFTFRPLPPPPPPPHACTCARKPP	62.9
Zyxin 36-mer peptide (biotinylated (BAP tag), Tested as a biotinylated BAP-6xHis-SUMO-peptide fusion) peptide: MAGGLNDIFEAQKIEWHEDTGGSSHHHHHHGSGSGSDSEVNQEAKPEVKPEVKPETHINLKVSDGSSEIFFKIKKTTPLRRLMEAFAKRQGKEMDSLTFLYDGIEIQADQTPEDLDMEDNDIIEAHREQIGGSGSGALGGAFPPPPPPIEESFPPAPLEEEIFPSPPPPPEE	4.79
